- assayed.target: human, citrated, platelet-rich plasma (Homo sapiens, UniProt P05106+P08514)
- Construct: aggregating human, citrated, platelet-rich plasma; endogenous in cells; host or cells: human platelets in citrated platelet-rich plasma
- Sequence (P08514 32-887 limits assumed): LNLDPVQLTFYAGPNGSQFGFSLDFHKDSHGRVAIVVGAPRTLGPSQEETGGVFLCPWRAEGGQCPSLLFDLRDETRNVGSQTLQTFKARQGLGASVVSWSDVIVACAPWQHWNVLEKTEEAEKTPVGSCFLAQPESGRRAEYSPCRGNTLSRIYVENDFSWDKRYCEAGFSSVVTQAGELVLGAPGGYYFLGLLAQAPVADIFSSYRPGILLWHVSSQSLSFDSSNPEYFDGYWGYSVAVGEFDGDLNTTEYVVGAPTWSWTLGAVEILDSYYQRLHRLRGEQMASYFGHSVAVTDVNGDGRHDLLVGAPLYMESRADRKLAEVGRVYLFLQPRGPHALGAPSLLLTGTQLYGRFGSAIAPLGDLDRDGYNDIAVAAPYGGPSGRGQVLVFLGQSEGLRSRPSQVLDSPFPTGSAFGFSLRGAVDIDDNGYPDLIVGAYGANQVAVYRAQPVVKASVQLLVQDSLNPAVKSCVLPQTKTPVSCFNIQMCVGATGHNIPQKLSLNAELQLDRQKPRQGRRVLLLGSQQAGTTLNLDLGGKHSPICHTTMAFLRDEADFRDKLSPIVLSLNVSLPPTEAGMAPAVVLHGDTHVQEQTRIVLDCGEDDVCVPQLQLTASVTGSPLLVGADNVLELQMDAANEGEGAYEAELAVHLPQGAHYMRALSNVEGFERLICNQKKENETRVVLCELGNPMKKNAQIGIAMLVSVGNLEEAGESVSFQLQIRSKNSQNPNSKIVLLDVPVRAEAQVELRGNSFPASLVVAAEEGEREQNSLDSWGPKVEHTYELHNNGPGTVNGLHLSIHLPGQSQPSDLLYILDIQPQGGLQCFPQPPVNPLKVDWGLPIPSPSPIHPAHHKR
- Sequence (P08514 891-1039 limits assumed): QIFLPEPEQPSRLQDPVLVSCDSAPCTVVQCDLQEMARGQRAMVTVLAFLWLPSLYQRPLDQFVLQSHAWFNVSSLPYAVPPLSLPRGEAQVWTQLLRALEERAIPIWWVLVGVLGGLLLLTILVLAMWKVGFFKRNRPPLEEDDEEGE
- Sequence (P05106 27-788): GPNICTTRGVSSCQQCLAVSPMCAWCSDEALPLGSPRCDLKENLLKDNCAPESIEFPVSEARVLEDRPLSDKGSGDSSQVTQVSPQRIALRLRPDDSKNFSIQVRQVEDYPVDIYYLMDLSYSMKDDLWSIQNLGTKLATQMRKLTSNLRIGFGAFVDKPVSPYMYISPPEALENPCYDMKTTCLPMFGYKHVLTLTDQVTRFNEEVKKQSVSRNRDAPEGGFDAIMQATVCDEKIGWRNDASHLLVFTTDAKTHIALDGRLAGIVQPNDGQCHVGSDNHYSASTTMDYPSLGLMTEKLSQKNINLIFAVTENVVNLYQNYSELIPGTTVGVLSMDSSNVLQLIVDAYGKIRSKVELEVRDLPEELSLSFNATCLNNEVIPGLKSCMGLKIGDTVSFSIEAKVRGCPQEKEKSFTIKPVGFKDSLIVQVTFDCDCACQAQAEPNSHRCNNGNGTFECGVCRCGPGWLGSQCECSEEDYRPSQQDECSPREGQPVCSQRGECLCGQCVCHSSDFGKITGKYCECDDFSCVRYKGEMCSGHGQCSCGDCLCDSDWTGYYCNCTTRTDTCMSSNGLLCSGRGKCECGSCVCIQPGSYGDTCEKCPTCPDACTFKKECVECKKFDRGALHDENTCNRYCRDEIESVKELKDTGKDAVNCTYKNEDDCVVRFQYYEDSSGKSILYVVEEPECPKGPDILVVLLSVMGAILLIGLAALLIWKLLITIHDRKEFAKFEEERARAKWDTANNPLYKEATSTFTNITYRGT
- assay.overview: Test (a): inhibition of ADP stimulated platelet aggregation (Born)
- Assay type: cell-based
- measurement.context: ADP induced aggregation of human platelet-rich plasma; read-out: Test (a): pA2 value indicating potency of platelet aggregation inhibition (converted)
Where a name gives a salt, the structure may show the parent alone.

| compound | relational.operator | Kb (µM) |
| --- | --- | --- |
| CCCCS(=O)(=O)N[C@H](Cc1ccc(OCC2CCN(c3ccncc3)CC2)cc1)C(=O)OC | = | 39.8 |
| O=C(O)COc1ccc(NC(=O)CC2CCN(c3ccncc3)CC2)cc1 [Example 166, dihydrochloride] | = | 1.58 |
| CCOC(=O)Cc1ccc(C(=O)CN2CCN(c3ccncc3)CC2)cc1 | = | 7.94 |
| CCOC(=O)CCCOc1cccc(N2CCN(c3ccncc3)CC2)c1 | = | 20 |
| COCCNC(=O)CCCOc1ccc(N2CCN(c3ccncc3)CC2)cc1 [Example 201, trifluoroacetate] | = | 50.1 |
| O=C(O)CC(COc1ccc(N2CCN(c3ccncc3)CC2)cc1)Cc1ccccc1 (racemic) | = | 3.16 |
| Cc1cc(N2CCN(CC(=O)c3ccc(OCC(=O)O)cc3)CC2)ccn1 [Example 152, dihydrobromide] | = | 0.1 |
| COC(=O)C(Oc1ccc(C(=O)CN2CCN(c3ccncc3)CC2)cc1)C(=O)OC | = | 1.58 |
| O=C(COc1ccc(C(=O)CN2CCN(c3ccncc3)CC2)cc1)NCc1ccccc1 | = | 3.16 |
| Cc1cc(C(=O)CN2CCN(c3ccncc3)CC2)ccc1OCC(=O)O [Example 127, dihydrochloride] | = | 1.58 |
| COCCNC(=O)COC1CCN(C(=O)CN2CCN(c3ccncc3)CC2)CC1 | = | 31.6 |
| COC(=O)[C@H](Cc1ccc(OCCC2CCN(c3ccncc3)CC2)cc1)NS(=O)(=O)Cc1ccccc1 | = | 3.98 |
| COc1cc(OCC(=O)O)ccc1C(=O)CN1CCN(c2ccncc2)CC1 [Example 128, dihydrochloride] | = | 0.158 |
| O=C(O)C1CCN(C(=O)CN2CCN(c3ccncc3)CC2)CC1 | = | 20 |
| CN(C)c1ccncc1CCCOc1ccc(OCCCC(=O)O)cc1 | = | 31.6 |
| O=C(O)COC1CCCN(C(=O)CN2CCN(c3ccncc3)CC2)C1 (centres unmarked) | > | 100 |
| CCOC(=O)CCCCOc1cccc(N2CCN(c3ccncc3)CC2)c1 | = | 10 |

====

- assayed.target: purified human platelet fibrinogen receptor (GPIIb/IIIa) (Homo sapiens, UniProt P05106+P08514)
- Construct: is isolated from human platelet lysates; from tissue
- Sequence (P08514 32-887 limits assumed): as the sequence (P08514 32-887 limits assumed) above
- Sequence (P08514 891-1039 limits assumed): as the sequence (P08514 891-1039 limits assumed) above
- Sequence (P05106 27-788): as the sequence (P05106 27-788) above
- assay.overview: Test (b): GPIIb/IIIa ELISA, inhibition of biotinylated fibrinogen binding
- measurement.context: purified human platelet GPIIb/IIIa, ELISA; read-out: Test (b): pIC50 (-log(IC50)), 50% inhibition of biotinylated fibrinogen binding to GPIIb/IIIa (converted)
Structures can show the parent of a compound that is named as a salt.
Below, each entry is listed with its recorded IC50.

| compound | IC50 |
| --- | --- |
| O=C(O)C[C@H](NC(=O)CNC(=O)CN1CCN(c2ccncc2)CC1)C(=O)N[C@@H](Cc1ccccc1)C(=O)O [Example 40] | 0.02 µM |
| CC(C)(Oc1ccc(C(=O)CN2CCN(c3ccncc3)CC2)cc1)C(=O)O [Example 135, dihydrobromide] | > 100 µM |
| O=C(O)CCCCN1CCN(c2ccncc2)CC1 [Example 196, dihydrochloride salt] | 6.31 µM |
| CCCCS(=O)(=O)NC(Cc1ccc(C(=O)CN2CCN(c3ccncc3)CC2)cc1)C(=O)OC (racemic) [Example 66] | 0.251 µM |

====

Below, each entry is listed with its recorded log10(IC50).
- assayed.target: purified human platelet fibrinogen receptor (GPIIb/IIIa) (Homo sapiens, UniProt P05106+P08514)
- Construct: is isolated from human platelet lysates; from tissue
- assay.overview: Test (b): GPIIb/IIIa ELISA, inhibition of biotinylated fibrinogen binding
- measurement.context: purified human platelet GPIIb/IIIa, ELISA; read-out: Test (b): pIC50 (-log(IC50)), 50% inhibition of biotinylated fibrinogen binding to GPIIb/IIIa (converted)
recorded.metric: log10(IC50) (log10 of the value in nM)

| molecule | log10(IC50) |
| --- | --- |
| COC(=O)COc1ccc(C(=O)CC2CCN(c3ccncc3)CC2)cc1 | 2.30 |
| O=C(O)COc1ccc(OCC2CCN(c3ccncc3)CC2)cc1 | 2.00 |
| COC(=O)CCNC(=O)c1ccc(N2CCN(c3ccncc3)CC2)nc1 | 3.60 |
| O=C(O)COc1ccc2nc(N3CCN(c4ccncc4)CC3)ccc2c1 | 1.80 |
| COC(=O)COc1c(Cl)cc(C(=O)CN2CCN(c3ccncc3)CC2)cc1Cl | 3.40 |
| O=C(O)COc1ccc(C(=O)CN2CCN(c3ccncn3)CC2)cc1 | 2.40 |
| COC(=O)COc1ccc(C(=O)C(C)CN2CCN(c3ccncc3)CC2)cc1 (racemic) | 4.90 |

====

- assayed.target: human, citrated, platelet-rich plasma (Homo sapiens, UniProt P05106+P08514)
- Construct: aggregating human, citrated, platelet-rich plasma; endogenous in cells; host or cells: human platelets in citrated platelet-rich plasma
- assay.overview: Test (a): inhibition of ADP stimulated platelet aggregation (Born)
- Assay type: cell-based
- measurement.context: ADP induced aggregation of human platelet-rich plasma; read-out: Test (a): pA2 value indicating potency of platelet aggregation inhibition (converted)
- From the text: (i) aggregating human, citrated, platelet-rich plasma by addition of adenosine diphosphate so as to generate a dose-response curve; (ii) generating a dose-response curve for ADP stimulated platelet aggregation in the presence of increasing amounts of a test compound (generally in the range 10-^5 M to 10-^10 M); and […]
Structures can show the parent of a compound that is named as a salt.
Label scheme for Kb: lower than 500 nM is false (0), 500 nM and above is true (1).

| molecule | assayed.target | answer.label |
| --- | --- | --- |
| O=C(O)C[C@H](NC(=O)c1ccc(N2CCN(c3ccncc3)CC2)cc1)C(=O)NCCc1ccccc1 [Example 192] | human, citrated, platelet-rich plasma (Homo sapiens, UniProt P05106+P08514) | true (1) |
| O=C(O)COc1ccc(C(=O)CN2CCN(c3ccnc4ccccc34)CC2)cc1 [Example 44, trifluoroacetate salt] | human, citrated, platelet-rich plasma (Homo sapiens, UniProt P05106+P08514) | true (1) |
| COC(=O)[C@H]1CC[C@H](Oc2ccc(N3CCN(c4ccncc4)CC3)cc2)CC1 [Example 230] | human, citrated, platelet-rich plasma (Homo sapiens, UniProt P05106+P08514) | true (1) |
| O=C(O)CCN(Cc1ccccc1)C(=O)c1ccc(N2CCN(c3ccncc3)CC2)cc1 [Example 236] | human, citrated, platelet-rich plasma (Homo sapiens, UniProt P05106+P08514) | true (1) |
| O=C(O)COc1ccc(C(=O)CCN2CCN(c3ccncc3)CC2)cc1 [Example 8] | human, citrated, platelet-rich plasma (Homo sapiens, UniProt P05106+P08514) | false (0) |
| COC(=O)COc1ccc(NC(=O)CC2CCN(c3ccncc3)CC2)cc1 [Example 165] | human, citrated, platelet-rich plasma (Homo sapiens, UniProt P05106+P08514) | true (1) |
| CCCCS(=O)(=O)N[C@@H](Cc1ccc(OCCC2CCN(c3ccncc3)CC2)cc1)C(=O)O [Example 36] | human, citrated, platelet-rich plasma (Homo sapiens, UniProt P05106+P08514) | false (0) |
| COC(=O)C(N)CCOc1ccc(N2CCN(c3ccncc3)CC2)cc1 (racemic) [Example 213] | human, citrated, platelet-rich plasma (Homo sapiens, UniProt P05106+P08514) | false (0) |
| COC(=O)COc1ccc(NC(=O)C2CCN(c3ccncc3)CC2)cc1 [Example 163, hydrochloride] | human, citrated, platelet-rich plasma (Homo sapiens, UniProt P05106+P08514) | false (0) |
| COC(=O)COc1ccc(NC(=O)N2CCN(c3ccncc3)CC2)cc1 [Example 63] | human, citrated, platelet-rich plasma (Homo sapiens, UniProt P05106+P08514) | false (0) |
| COC(=O)COc1ccc(C(=O)CN2CCN(c3ccncc3)CC2)cc1OC [Example 5] | human, citrated, platelet-rich plasma (Homo sapiens, UniProt P05106+P08514) | true (1) |
| O=C(O)C1CCCN(C(=O)c2ccc(N3CCN(c4ccncc4)CC3)cc2)C1 (centres unmarked) [Example 235] | human, citrated, platelet-rich plasma (Homo sapiens, UniProt P05106+P08514) | true (1) |
| O=C(O)CCNC(=O)c1ccc(N2CCN(c3ccncc3)CC2)nc1 [Example 70] | human, citrated, platelet-rich plasma (Homo sapiens, UniProt P05106+P08514) | false (0) |
| O=C(O)CCCOc1ccc(N2CCN(c3ccncc3)CC2)cc1 [Example 200, hydrochloride salt] | human, citrated, platelet-rich plasma (Homo sapiens, UniProt P05106+P08514) | false (0) |
| CN(C)c1ccncc1COc1ccc(OCCCC(=O)O)cc1 [Example 113] | human, citrated, platelet-rich plasma (Homo sapiens, UniProt P05106+P08514) | true (1) |
